// provenance: paper PMC2935290

# measured target: HLA-DPB1*0201 (human (endogenous in JY))
# experiment description: radioligand binding
Flag rule - other less than 1 flags criterion met; the remaining entries get criterion not met.

Solved entries:
| binder | label class |
| --- | --- |
| EKKYFAATSFEPLAA [… Q9S] | criterion not met |
| EKKQFAATQFEPLAA [… Y4Q] | criterion not met |
| EKKAFAATQFEPLAA [… Y4A] | criterion met |
| EKKYFIATQFEPLAA [… A6I] | criterion met |
| EKKYFAATQFLPLAA [… E11L] | criterion not met |

Data request: Please determine if EKKYFAATQFIPLAA [… E11I] is below 1 in terms of other.
Data returned: criterion not met

Data request: Determine if EKKYFDATQFEPLAA [… A6D] shows other strictly lower than 1.
Data returned: criterion met

Data request: Regarding EKKYFEATQFEPLAA [… A6E] , kindly confirm whether its other is beneath 1.
Data returned: criterion met

Data request: Threshold test, other < 1: EKKYFCATQFEPLAA [… A6C]
Data returned: criterion met
